Tested on: RSV A2 strain
measurement.protocol: In vitro CPE (CytoPathic Effect) inhibition effect evaluation test, RSV type A
Type: cell-based
particulars: human respiratory syncytial virus; inhibitory effect against RSV type A (RSV A2 strain), HEp-2 cells, CPE inhibition; read-out: EC50
outcome.measure: EC50

Name the recorded EC50 for COc1cccc(CNc2ccc3c(c2)CCN3c2ncc(C(=O)NC3(C(=O)O)CCCCC3)c(C(F)(F)F)n2)c1 [Compound I-40] .
< 10 nM

Name the recorded EC50 for O=C(NC1(C(=O)O)C2CC3CC(C2)CC1C3)c1cnc(N2CC3(CCOCC3)c3cc(O[C@H]4CC[C@@H](n5cccn5)CC4)ccc32)nc1C(F)(F)F (stereo partly drawn) [Compound I-192] .
< 10 nM

Name the recorded EC50 for O=C(NC1(C(=O)O)CCCCC1)c1cnc(N2CCc3cc(OC4CCN(c5nccc(=O)[nH]5)CC4)ccc32)nc1C(F)(F)F [Compound I-69] .
100 to 5000 nM
